Experiment: Volume of distribution at steady state in Beagle dog at […], po or 1 mg/kg, iv
Assay type: ADME, organism-based, Canis lupus familiaris
Details: in vivo, dose 2.5 mg/kg, read-out: Vdss
MEASURED_METRIC: Vd (L/kg)

[[record]]
molecular_string = "C[C@H]1Cc2[nH]nc(-c3cscn3)c2CN1C(=O)Nc1ccc(F)c(C#N)c1"
numeric_value = 3


###

Test: Metabolic stability in human microsomes assessed as intrinsic clearance
Assay type: ADME, Microsome
Exam item: assign True to entries whose CLint scaled is below 20 mL/min/kg and False to entries at or above 20 mL/min/kg. Note that a value of exactly 20 mL/min/kg receives False.

[[record]]
molecular_string = "C[C@H]1Cc2[nH]nc(-c3ccccc3)c2CN1C(=O)Nc1cccc(Cl)c1"
class = "True"

[[record]]
molecular_string = "O=C(Nc1cccc(Cl)c1)N1CCc2[nH]nc(-c3cscn3)c2C1"
class = "False"

[[record]]
molecular_string = "Cc1cc(NC(=O)N2Cc3c(-c4cscn4)n[nH]c3C[C@@H]2C)ccc1F"
class = "True"

[[record]]
molecular_string = "C[C@H]1Cc2[nH]nc(-c3cccs3)c2CN1C(=O)Nc1cccc(Cl)c1"
class = "True"

[[record]]
molecular_string = "O=C(Nc1cccc(Cl)c1)N1CCc2[nH]nc(-c3nccs3)c2C1"
class = "False"

[[record]]
molecular_string = "O=C(Nc1cccc(Cl)c1)N1CCc2[nH]nc(-c3cccs3)c2C1"
class = "False"

[[record]]
molecular_string = "C[C@H]1Cc2[nH]nc(-c3cscn3)c2CN1C(=O)Nc1ccc(F)c(C#N)c1"
class = "True"

[[record]]
molecular_string = "C[C@H]1Cc2[nH]nc(-c3cscn3)c2CN1C(=O)Nc1ccc(F)c(Br)c1"
class = "False"

[[record]]
molecular_string = "C[C@H]1Cc2c(c(-c3cccs3)nn2C)CN1C(=O)Nc1cccc(Cl)c1"
class = "False"

[[record]]
molecular_string = "C[C@H]1Cc2[nH]nc(-c3cscn3)c2CN1C(=O)Nc1ccnc(Br)c1F"
class = "True"


Origin of the recorded values: ChEMBL document CHEMBL4732225
